Overview of recorded pEC50 for various compounds
- Test system: THP-1 Lucia ISG cells
- protocol_notes: ISG-LUC activation assay (ISRE-luciferase assay)
- Type: cell-based
- particulars: Homo sapiens, THP1-Lucia ISG; THP-1 Lucia ISG reporter cells, 24 hours; score based upon potency and efficacy relative to reference compound; read-out: ISG-LUC activation assay score
pEC50: −log10 of the molar value.

Worked cases, answers included:
[
  {
    "entry_smiles": "COC(=O)c1cc(F)c(F)cc1NC(=O)c1ccc2nccn2n1",
    "assayed_system": "THP-1 Lucia ISG cells",
    "pEC50": "< 4.70"
  },
  {
    "entry_smiles": "COc1cc2nc(-c3cc(N)c4nnnn4n3)oc(=O)c2cc1F",
    "assayed_system": "THP-1 Lucia ISG cells",
    "pEC50": "> 6.05"
  },
  {
    "entry_smiles": "COc1ccc(C(=O)O)c(NC(=O)c2cc(N)c3nnnn3n2)c1",
    "assayed_system": "THP-1 Lucia ISG cells",
    "pEC50": "< 6.00"
  }
]

Req: Look up pEC50 of Nc1cc(C(=O)Nc2cc(Cl)c(F)cc2C(=O)O)nn2nnnc12 and report it.
Resp: > 6.05
